test system: Escherichia coli; experiment: Inhibitory activity against azide-resistant Escherichia coli J53 T07-006; assay type: functional
Strictly below 20 µg/mL in MIC: fulfilled. Otherwise: not fulfilled.

Please review the following examples before continuing.
- mol.smiles: "CO/N=C(\\C(=O)N[C@@H]1C(=O)N2C(C(=O)O)=C(COC(C)=O)CS[C@H]12)c1csc(N)n1"
  category: "fulfilled"
- mol.smiles: "CO[C@@]1(NC(=O)Cc2cccs2)C(=O)N2C(C(=O)O)=C(COC(N)=O)CS[C@@H]21"
  category: "fulfilled"
- mol.smiles: "CCn1cc(C(=O)O)c(=O)c2ccc(C)nc21"
  category: "not fulfilled"

Exercise: State whether 20 µg/mL exceeds MIC recorded for "COc1c(N2C[C@@H]3CCCN[C@@H]3C2)c(F)cc2c(=O)c(C(=O)O)cn(C3CC3)c12" .
Solution: fulfilled

Exercise: For "C[C@H]1COc2c(N3CCN(C)CC3)c(F)cc3c(=O)c(C(=O)O)cn1c23.C[C@H]1COc2c(N3CCN(C)CC3)c(F)cc3c(=O)c(C(=O)O)cn1c23.O" , is the recorded MIC below the cut-off of 20 µg/mL?
Solution: fulfilled

Exercise: Dear reviewer, please state whether "CC(C)(O/N=C(\C(=O)N[C@@H]1C(=O)N2C(C(=O)[O-])=C(C[n+]3ccccc3)CS[C@H]12)c1csc(N)n1)C(=O)O" has MIC strictly beneath 20 µg/mL.
Solution: not fulfilled
